All figures here come from patent US20240301052A1.

Reported pEC50 values follow for various binders
Biological target: T1, human SLC34A2 (human, UniProt O95436 1-690)
T1 construct: whole, on cells; also called human solute carrier 34 A2; NaPi2b
T1 sequence (looked up): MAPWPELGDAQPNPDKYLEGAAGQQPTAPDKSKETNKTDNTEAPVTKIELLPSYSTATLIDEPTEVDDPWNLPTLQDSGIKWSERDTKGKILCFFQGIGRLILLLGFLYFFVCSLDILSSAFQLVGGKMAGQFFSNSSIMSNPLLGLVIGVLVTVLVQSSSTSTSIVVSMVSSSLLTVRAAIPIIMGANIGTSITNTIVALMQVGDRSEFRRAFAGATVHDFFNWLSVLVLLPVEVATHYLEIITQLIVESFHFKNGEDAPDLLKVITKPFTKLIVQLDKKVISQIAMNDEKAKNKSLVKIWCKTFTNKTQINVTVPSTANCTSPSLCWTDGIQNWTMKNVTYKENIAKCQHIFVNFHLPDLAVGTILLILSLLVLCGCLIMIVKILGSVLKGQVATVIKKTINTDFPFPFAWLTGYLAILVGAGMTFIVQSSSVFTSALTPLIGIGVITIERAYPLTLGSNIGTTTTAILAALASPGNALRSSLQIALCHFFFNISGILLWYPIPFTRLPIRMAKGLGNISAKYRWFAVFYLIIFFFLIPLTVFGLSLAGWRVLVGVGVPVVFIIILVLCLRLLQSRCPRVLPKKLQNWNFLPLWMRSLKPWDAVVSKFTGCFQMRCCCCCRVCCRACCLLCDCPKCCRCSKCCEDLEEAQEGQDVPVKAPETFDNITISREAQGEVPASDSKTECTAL
Assay: FACS, OVCAR3 cells
Protocol: In this example, cell based binding of chimeric antibodies (hIgG1) prepared from the murine antibodies on human SLC34A2 expressing cells were assessed using flow cytometry. Briefly, OVCAR3 cells or HEK293 cells expressing human SLC34A2 were incubated with chimeric antibodies (from 200 nM, 4 folds dilution, 8 points). […] After that the cells were washed twice and analyzed by flow cytometry.
The value called pEC50 is obtained by taking minus log10 of the concentration in mol/L.

xi7G10E11 hIgG1 (antibody, V domains shown, chimeric, hIgG1) VH: DVKLVESGGGLIKLGGSLKLSCAASGFTFSGYYMSWFRQTPEKRLELVAVINSNGGSTYYAVTVKGRFTISRDNAKNTLYLQMSSLKSEDTALYYCARHEGSQAWFAHWGQGTLVTVSA VL: DIVMTQSHKFMSTSVGDRVSITCKASQDVTTAVAWYQQKPGQSPKLLIYWASTRHTGVPDRFTGSGSGTDYTLTISSVQAEDLALYYCQQHHSTPLTFGAGTKLELK; 8.77
xi67C9G11 hIgG1 (antibody, V domains shown, chimeric, hIgG1) VH: DVKLVESGGGLVKLGGSLKLSCAASGFTFSSYFMSWIRQTPEKRVDLVAVINSNGGSTYSPDTVKGRFTISRDNAKNTLYLQMTSLKSEDTALYYCARHFYSYDGAWFPYWGQGTLVTVSA VL: DIVMTQSHKFMSTLVGDRVSITCKASQDVSTSVAWYQQKPGQSPKLLIYWASTRHTGVPDRFTGSGSGTDFTLTISSVQAEDLALYYCQQHHSTPITFGVGTKLELK; 8.33

Exercise: Requested field: pEC50. Item: xi55E5B6D12 hIgG1 (antibody, V domains shown, chimeric, hIgG1) VH: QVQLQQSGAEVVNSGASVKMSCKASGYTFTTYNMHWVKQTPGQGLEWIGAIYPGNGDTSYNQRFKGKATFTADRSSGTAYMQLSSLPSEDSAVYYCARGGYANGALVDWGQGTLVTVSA VL: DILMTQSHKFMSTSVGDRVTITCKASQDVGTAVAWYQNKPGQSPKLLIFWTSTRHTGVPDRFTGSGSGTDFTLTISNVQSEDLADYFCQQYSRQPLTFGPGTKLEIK
Key: 8.48
